Reference for the values: a protein production outcome set (Wang et al. 2014)

Assay: label from the status in PepcDB records;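 note: failed if final PepcDB status was selected cloned or expressed and not failed if soluble or beyond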
Measured Attribute: protein production

Solved cases (5 shown):
Lookup: Requested field: protein production. Item: MSLKVVIGYLALDDWEFESLFPTIEWKYLTHINASFARVKADGTLNINPVRKRIESVRETAHKHNVKILISLAKNSPGEFTTAINDPKARKELIQQIIAFTKEYKLDGFDIDYEEYDNWDKNFPSLLVFARGLYLAKEKNMLMTCAVNSRWLNYGTEWEQYFDYINLMSYDRGAFTDKPVQHASYDDFVKDLKYWNEQCRASKSKIVGGLPFYGYSWEESLQGAVDDVRGIRYSGILKHLGNEAADKDNIGKTYYNGRPTIANKCKFIKENDYAGVMIWQLFQDAHNDNYDLKLINVVGREMMEEGHHHHHH
Found: not failed

Lookup: Requested field: protein production. Item: MPISEDLKQAIRQRARYICEYCHSPERLSANRFTIDHVIPKSLGGSDAFNNLALACRRCNERRYNFVASIDPQTKTIVAIFNPRQQNWAEHFIWTNRGIIIQGTTTTGRATCIRLDLNDTRYPEEDSIQETRRFWLKTGLHPPIDDPCKNLEHHHHHH
Found: not failed

Lookup: Requested field: protein production. Item: VRRIKLGSQGLEVSAQGLGCMGLSAFYGTPKPETEAIALIHHAIHSGVTFLDTSDIYGPETNELLLSKALKDGVREKVELATKYGIRYAEGKVEFKGDPAYVRAACEASLMRVDVACIDLYYQHRIDTRVPIEITIGELKKLVEEGKIKYIGLSEASASTIRRAHAVHPITALQIEWSLWSRDVEEDIIPTCRELGIGIVAYSPLGRGFFASGPKLVENLDNNDVRKTLPRFQQENLDHNKILFEKVSAMSEKKGCTPAQLALAWVHHQGDDVCPIPGTTKIENLNQNIGALSVKLTPEEMSELESLAQP
Found: failed

Lookup: Requested field: protein production. Item: KKPLSVFKGPLLHISPAEELYFGSIESGEKKTLIVLTNVTKNIVAFKVRTTAPEKYRVKPSNSSCDPGASIDIIVSPHGGLTVSAQDRFLIMAAEMEQSSGTGPAELSQFWKEVPRNKVMEHRLRCHTVESSKPNSLML
Found: not failed

Lookup: Requested field: protein production. Item: MKTLFSIYLFLSLNPLFLEANEITWSKFLENFKNKNDDDKPKPLTIDKNNEKQQILDKNQQILKRALEKSLKFFFIFGYNYSQATFSTSNQTLTFVANSIGFNTATGLEHFLRNHPKVGFRIFSVYNYFHSVSLSQPQTLMVQNYGGALDFSWIFVDKNIYRFRSYLGIALEQGVLLVDTIKPGAITTIIPRTKKTFFQAPLRFGFIVDFIGYLSLQLGIEMPLVRNVFYTYNNHQERFKPRFNANLSLIVSF
Found: failed

Next:
Lookup: Requested field: protein production. Item: LQVGKVYIFGSGHVARALVPILNYLSFYCVVVDDRPEFLTAQAFPQAEELRVIPLENLAAFIEITADDYGIVITRGHNFDFIVAKQLLETPAKYIGVMGSKHKIASQVRRLKEVGYTMTEIERIFMPIGLDIAAETPEELAISIAGELIQQRYQ
Found: failed

Lookup: Requested field: protein production. Item: MDDVQVERILQNPKFKKMVSKKATLSWTLTIIMLIVYVGFMLLVGYNKEFLMSSFSGGVTTWGIPLGLGIIVLSFVLCGVYSYIANNTLDQLNEEALREVENITHEKGLH
Found: failed

###

Assay: label from the status in PepcDB records
Measured Attribute: protein production

Lookup: Requested field: protein production. Item: MKCIESLGKTVDEAVKKALSELKVTEDKVEIKVIDEGSKGLLNIIGKREAKVKVTLKTDYIDEVRTFLRKVFEDMNLVIEIKIKEIGNDLFVNLFGKNIGLLIGYRGETLDSLQYLVNLVANKNHADGKYKRVILDTENYRAKREETLKRLALKISKRVKEEKSPFKLEPMNPYERRVIHSALQNDKYVRTYSEGEEPHRRVVVELKKS
Found: not failed

Lookup: Requested field: protein production. Item: MSSRPQREKSMTALTQHAPVLEIYQDIANLTSRMLAAANASNWDLVLNHGQEYVCLVERLRELEPGEPLDEAARGMKFDLLVRILENDAAVRDLALPQLARLSDLLGRMKRQQSLLATYSGKANGT
Found: not failed

Lookup: Requested field: protein production. Item: MTLAALCQGVLERLDPRQPGRQLVALSGAPGSGKSTLSNPLAAALSAQGLPAEVVPMDGFHLDNRLLEPRGLLPRKGAPETFDFEGFQRLCHALKHQERVIYPLFDRARDIAIAGAAEVGPECRVAIIEGNYLLFDAPGWRDLTAIWDVSIRLEVPMADLEARLVQRWLDHGLNHDAAVARAQGNDLANARAIEAARLPADLTWPQA
Found: not failed

Lookup: Requested field: protein production. Item: MTHTVIVPGVGGSEQHHWQSWLQRQLSSCSRVEQNDWNLPVLSDWVSHLISHVQQLEQPVQIVAHSFGCLTTLAALEQHPQLINQVKHITLVAPANPERFGEAGFARDSQTDYRAYFHQLKPSIKTQLIISENDPWLDFEEALQLAKSWQVRATNLGKVGHINVASGFGPFPEIFDYMLP
Found: failed

Lookup: Requested field: protein production. Item: MRSISTGRMIDDSSDSVKGSVVWVPAKSIWITTMTVVAVVGGPLTFSWSAVIVFVLSTAITICLGHSVGMHRLLIHRSFSAPLWLEHLLVYLGTLVGMAGPFGMIYAHDIRDWAQRQRDCHDLYAHRRSFFVDALWQMHCAVALDEPPRFVVEERARHDRFYRLLEATWMAQQIPLALLLFSLGGLPWLVWGIAVRISVSLTGHWLVGHFAHRNGHQGWSVDDVAVQGYNLPRFGLVTFGESFHGNHHAFPESARLGIEPGQLDLGWHFIRLLAGLGLASAIKLPHTIVPRDGLRRVEVSGDTGEDHPVGQR
Found: failed

Next:
Lookup: Requested field: protein production. Item: MNQPDIKGSCASEFTKVRDAFERNFVLRNEVGAAVAVWVDGDLVVNLWGGSADAGGTRPWQHDTLATVLSGTKALTATCVHQLVDRGELDLHAPVARYWPEFGQAGKQAITLAMVMSHRSGAIGPRGRLGWEQVADWDFVCEQLAAAEPWWQPGAAQGYHMTTFGFILGEVFRRVTGRTVGQYLRTEIAEPLGADVHIGLHPGEQLRCADLVDKPHIRQLLADVQAPGYPTSLNEHPKAALSVSMGFAPDDELGSNDLQLWRQIEFPGTNGQVSALGLATFYNGLAQEKLLSREHMELVRVSQGGFDTDLVLGPRVADHGWGLGYMLNQRGVNGPNPRIFGHGGLGGSFGFVDLEHRIGYAYVMNRFDATKANADPRSVVLSNEVYAALGVNRS
Found: failed

###

Assay: label from the status in PepcDB records
Measured Attribute: protein production

Solved cases (5 shown):
Lookup: Requested field: protein production. Item: MNKYFPLAKYKKEKMMFMKLLEGCYKVERLYIYSKRLCKQMEPKSQEEYNIARKQIKKTFDEGWTEADCGGRESCILEIPFVFWSSPNKSNCRRQPKRSYGKKLLYIPLNDLKDDIPYPNSSSEAGKVWKPQ
Found: failed

Lookup: Requested field: protein production. Item: MAAGPEPPEWEPRWRKALRGKENKGSVEIMRKDLNDARDLHGQAESAAAVWKGHVMDRRKKALTDYKKLRAFFVEEEEHFLQEAEKDEGASEDDELADPADRFRSLLQAVSELEKKHRNLGLSMLLQ
Found: not failed

Lookup: Requested field: protein production. Item: MAGFMKNAMSYLGMSDVVDDEDDYIEEDEEQKPASKSAFDSDHTVTPLASTTAPAASSTTKPFPGGRVNRITTIHPKSYEDAQLVGRALRDGVPVVLNLTGVAEAVAYRIVDFSAGVVFGVRGSLERVTPRVFLLSPAQVNIKVEEPTKPASAHDLFADLEHHHHHH
Found: failed

Lookup: Requested field: protein production. Item: MIYLFLALLSYACTYCLVGLLIQGQLADVAEGLRHRPDAPTPGEYLREVGPRARQARRQYTLIAGSVLAVLACLIASGFG
Found: failed

Lookup: Requested field: protein production. Item: MPDINESMLNQFRPVIRRFIDPIADRIALPADYITLTGFLVACAASAGYASGSLITGAALLAASGFIDVLDGAVARRRFRPTAFGGFLDSTLDRLSDGIIIIGITAGGFTGLLTGLLALHSGLMVSYVRARAESLGIECAVGIAERAERIIIILAGSLAGYLIHPWFMDAAIIVLAALGYFTMIQRMIYVWQRLK
Found: failed

Next:
Lookup: Requested field: protein production. Item: MLLFTPGPVAINEEMRTSFSQPMPHHRTKDFEKIFQSVRENLKKMTGLEEVLLLSSSGTGAMEASVISLCQKELLFVNAGKFGERFGKIAKAHSIKAHELVYEWDTPAQVDEILSVLKANPNIDAFCIQACESSGGLRHPVEKIAQAIKETNPNVFVIVDAITALGVEPLEITHVDALIGGSQKAFMLPPAMSLVALSQNAIERIEERNVGFYFNLKSELKNQRNNTTSYTAPILHTLGLQRYFELVQNLGGFEALYRETKKAALATQKAVLALGLKIFPKSPSLSMTTIVNEHAKELRNLLKEKYQVQFAGGQEPYKDALIRINHMGIIPVYKSAYALNALELALNDLDLREFDGVANATFLKQYYGI
Found: failed

Lookup: Requested field: protein production. Item: MIRLGLTSFSEHDYLTGKKRSTLYEYASHLPLVEMDTAYYGIPPKERVAEWVKAVPENFRFVMKVYSGISCQGEWQTYYASEEEMITAFLESMAPLIESKKLFAFLVQFSGTFGCTKENVAYLQKIRHWFKDLPIAIELRNNSWYQPNFVKQMLQFMKENQFSLVIVDEPQIPTNPVPFYPYVTNPNLVLFRFHGRNAAGWLANDAEWRKKRTLYHYNTQEIADLSEAVLKMSQEAKEVGVIFNNNSGGDAAENALQMQKVLNLSYDDLNPKQLDLF
Found: not failed

Lookup: Requested field: protein production. Item: MKFDESKTLLPVRKPVNGNRKTAGYKLWVLIAVLLLAFGSMLTGSVSLKGIGLFHSADGVNAFSFGDDLDVLEIEEREKVVRQMWDVYGRSGGVKVPRFWREAFEAAYEFLISDSAAVRNAAVSDIAKLSLVRFVKSESTSAQPNLH
Found: failed

Lookup: Requested field: protein production. Item: MIKLIKNEIIKMLFKKKVILIMAIILIEACAFAYGQNNKYQRTVRSYVNSNSSSYNWRPLINQQIQDLQSKLKYRTVKKSEEKSINIQMEQYRYYLKNNINPITPTAGNFTSNIMAQSVTLLLPLLVIILASDIVSSEFSSRTIKVLLTRAVPRWKILLSKYIALIIMSAFVVFLTTIIPLIVSLVVFKRTGFGEPVITGYKVIAGKVDASNVVGIYQWYYILIMSALSFFISIVVGSISFMISIFVKSIGASIGIMMSALIGGNILSVFLDDIEAAKYFFVVNLNLPQYLTGKMRIVSGMNFDFSIMVLLIWSMASIVISFYVFNKKDVLV
Found: failed

Lookup: Requested field: protein production. Item: MRLMIIFDLPVETSEERKEYRKFRKNLINEGFIMIQYSVYVRVCVNKKSAEFTEKRIESFLPSKGVVQSLILTEKQYNDMHFLLGKKIKEVRNSAERTIIL
Found: failed

Lookup: Requested field: protein production. Item: MCAFNGAALTALGISHSALLAHSPQGCEYLVNNAFASQECDYMETMTLCTKLCVDEIVHGGEDILARTIREVKDLPISALFVLSACGPEIVGDDIVGVCEALQPEVKFRLVPIESAGFRGSQYDGIDIAMDTILKKLVKDDVEKIPGSVCLEHHHHHH
Found: failed

Lookup: Requested field: protein production. Item: MFKIYNNGNPIPMGYSQAVENNVQITNFALFSAAAIGVELCLFDEQNQETRLPMVRTENVWHLAVTGVKTGTEYAFRIHGEFANPQKLILDPYAKAVNGKPDLSSEESRSWFLLSDNRDNAHLAPRAVVIS
Found: failed

Lookup: Requested field: protein production. Item: MTTNPYTGEREAGKSAIGAGLGSLVGAGIGALSSSKKDRGKGALIGAAAGAALGGGVGYYMDVQEANVRDKMRGTGVSVTRSGDNIILNMPNNVTFDSSSATLKPAGANTLTGVAMVLKEYPKTAVNVIGYTDSTGGHDLNMRLSQQRADSVASALITQGVDASRIRTQGLGPANPIASNSTAEGKAQNRRVEITLSPLLEHHHHHH
Found: not failed

Lookup: Requested field: protein production. Item: MACTVDFRCLDEGFGGKTYKRKRESQEQAAAEAIADEASMDIDGAPPAAKRSAVASSENPDKPIALAVERPTYDGVIAGKVSGRNWKQPRTHRSSGRFVKNRKPDLEEMKRQREIKKAYKERVNELKEEIRSNKVEKRKKKEEREKRKKENVLRTGTKLQKITNPKTLKKISMSKKQRKQLKKIPDEMLSGGSKKSITN
Found: not failed

Lookup: Requested field: protein production. Item: MSDAQKFQLGTIGALSLSVVSSVSIVICNKALISTLGFTFATTLTSWHLLVTFCSLHVALWMKFFEHKPFDPRAVLGFGVLNVNFSTFLVIGKTSPVTYQVLGHLKTCLVLAFGYLLLKDAFSWRNILGILVAVIGMVLYSYYCTLETQQKATETSTQLPQMDENEKDPLVSAENGSGLISDNGVQKQDPVWNSNKDFQA
Found: failed
